Origin of values: patent US20250388688A1

# target system: T1, Soluble TSHR (22-260) protein (human, UniProt P16473 22-260)
# T1 construct: range 22-260
# procedure details: SPR (Biacore T200, 25 C), antibody captured on anti-human Fc, soluble TSHR (22-260) as analyte, 1:1 fit;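 note: antibodies captured at 0.1 ug/mL on a CM5 sensor chip bearing anti-human Fc, with HBS-EP+ running buffer at pH 7.4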
measurement type: log10 kon (log10 of the value in M⁻¹ s⁻¹)
All values: log10 kon [M⁻¹ s⁻¹].

Worked examples follow.
| binder | log10 kon |
| --- | --- |
| TSHB-10 (antibody, V domains shown) VH: EVQLVQSGAEVKKPGESLKISCKASGYSLTDNWIGWVRQKPGKGLEWMGIIYPGDSDTRYSPSFKGQVTISADKSISTAYLQWSSLKASDTAIYYCVGLDWNYNPLRYWGQGTLVTVSS VL: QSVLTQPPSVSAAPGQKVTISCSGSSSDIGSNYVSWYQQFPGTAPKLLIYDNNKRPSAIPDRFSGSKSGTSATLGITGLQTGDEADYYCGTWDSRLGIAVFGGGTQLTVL | 5.06 |
| TSHB-7 (antibody, V domains shown) VH: EVQLVQSGAEVKKPGESLKISCKASGYSLKDNWIGWVRQKPGKGLEWMGIIYPGDSDTRYSPSFQGQVTISADKSISTAYLQWSSLKASDTAIYYCVGLDWNYNPLRYWGQGTLVTVSS VL: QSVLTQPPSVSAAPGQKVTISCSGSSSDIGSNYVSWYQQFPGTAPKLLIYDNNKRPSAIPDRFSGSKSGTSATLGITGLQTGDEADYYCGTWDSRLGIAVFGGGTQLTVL | 5.06 |
| TSHB-19 (antibody, V domains shown) VH: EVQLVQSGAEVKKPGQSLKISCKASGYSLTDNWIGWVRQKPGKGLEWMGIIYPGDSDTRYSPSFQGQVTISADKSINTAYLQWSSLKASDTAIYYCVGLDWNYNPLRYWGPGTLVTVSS VL: QSVLTQPPSVSAAPGQKVTISCSGSSSDIGSNWVSWYQQLPGTAPKLLIYDNNKRPSGIPDRFSGSKSGTSATLGITGLQTGDEADYYCGTWDSRLGIAVFGGGTQLTVL | 5.07 |
| TSHB-11 (antibody, V domains shown) VH: EVQLVQSGAEVKKPGESLKISCKASGYSLTDNWIGWVRQKPGKGLEWMGIIYPGDSDTRYSPSFQGQVTISADKSISTAYLQWSSLKASDTAIYYCVGTDWNYNPLRYWGQGTLVTVSS VL: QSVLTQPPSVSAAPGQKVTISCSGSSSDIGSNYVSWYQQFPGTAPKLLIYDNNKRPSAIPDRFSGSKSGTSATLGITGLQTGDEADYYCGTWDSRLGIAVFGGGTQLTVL | 4.08 |
| TSHB-24 (antibody, V domains shown) VH: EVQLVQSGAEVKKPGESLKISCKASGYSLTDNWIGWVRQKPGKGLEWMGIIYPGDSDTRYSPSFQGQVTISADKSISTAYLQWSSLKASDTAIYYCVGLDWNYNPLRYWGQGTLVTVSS VL: QSVLTQPPSVSGAPGQRVTISCSGSSSDIGSNYVSWYQQLPGTAPKLLIYDNNKRPSGVPDRFSGSKSGTSASLAITGLQAEDEADYYCGTWDSRLGIAVFGGGTKLTVL | 5.11 |

Identify the reported log10 kon for the following entry. TSHB-23 (antibody, V domains shown) VH: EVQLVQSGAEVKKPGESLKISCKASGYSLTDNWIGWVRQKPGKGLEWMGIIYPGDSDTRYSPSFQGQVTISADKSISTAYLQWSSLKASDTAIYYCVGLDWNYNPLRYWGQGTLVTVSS VL: QSVLTQPPSVSAAPGQKVTISCSGSSSDIGSNYVSWYQQLPGTAPKLLIYDNNKRPSGIPDRFSGSKSGTSATLGITGLQTGDEADYYCGTWDSRLGIAVFGGGTQLTVL
5.15

Identify the reported log10 kon for the following entry. TSHB-5 (antibody, V domains shown) VH: EVQLVQSGAEVKKPGESLKISCKASGYQLTDNWIGWVRQKPGKGLEWMGIIYPGDSDTRYSPSFQGQVTISADKSISTAYLQWSSLKASDTAIYYCVGLDWNYNPLRYWGQGTLVTVSS VL: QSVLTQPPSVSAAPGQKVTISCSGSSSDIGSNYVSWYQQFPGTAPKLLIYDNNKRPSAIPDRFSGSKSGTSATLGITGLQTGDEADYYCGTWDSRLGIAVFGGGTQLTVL
5.19

Identify the reported log10 kon for the following entry. TSHB-16 (antibody, V domains shown) VH: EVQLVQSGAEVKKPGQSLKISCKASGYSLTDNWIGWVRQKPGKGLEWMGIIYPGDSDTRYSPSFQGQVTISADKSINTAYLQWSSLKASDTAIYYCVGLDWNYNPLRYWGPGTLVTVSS VL: QSVLTQPPSVSAAPGQKVTISCSGSSSDIGANYVSWYQQLPGTAPKLLIYDNNKRPSGIPDRFSGSKSGTSATLGITGLQTGDEADYYCGTWDSRLGIAVFGGGTQLTVL
5.15

Identify the reported log10 kon for the following entry. TSHB-6 (antibody, V domains shown) VH: EVQLVQSGAEVKKPGESLKISCKASGYSLNDNWIGWVRQKPGKGLEWMGIIYPGDSDTRYSPSFQGQVTISADKSISTAYLQWSSLKASDTAIYYCVGLDWNYNPLRYWGQGTLVTVSS VL: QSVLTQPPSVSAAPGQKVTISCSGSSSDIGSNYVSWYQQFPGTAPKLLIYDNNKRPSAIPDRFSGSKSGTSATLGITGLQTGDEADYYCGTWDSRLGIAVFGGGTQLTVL
5.15

Identify the reported log10 kon for the following entry. TSHB-8 (antibody, V domains shown) VH: EVQLVQSGAEVKKPGESLKISCKASGYSLTDNWIGWVRQKPGKGLEWMGIIYPGDSDTRYSPSFQGQVTISADKSISTAYLQWSSLKASDTAMYYCVGLDWNYNPLRYWGQGTLVTVSS VL: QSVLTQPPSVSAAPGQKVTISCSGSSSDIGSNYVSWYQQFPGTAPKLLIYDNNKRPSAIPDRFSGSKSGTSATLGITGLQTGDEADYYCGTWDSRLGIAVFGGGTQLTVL
5.18
